valueType: logP

[
  {
    "smilesInput": "Cc1nc(N2CCNCC2)c(C#N)cc1-c1ccccc1",
    "valueType": "logP",
    "resultValue": 3.15
  }
]

Items follow; give logP for each.
1. N#Cc1cc(-c2ccncc2)cnc1N1CCNCC1
2. Cc1nc(N2CCNCC2)c(C#N)cc1-c1ccncc1
3. N#Cc1cc(-c2ccncc2)cnc1N1CCN(CCO)CC1
4. CCN(CC)CCCNc1ncc(-c2ccncc2)cc1C#N
5. N#Cc1cc(-c2ccncc2)cnc1NCCN
6. N#Cc1cc(-c2ccncc2)cnc1NCCCN1CCOCC1

Response given:
1: 2.51; 2: 2.96; 3: 2.14; 4: 2.56; 5: 1.93; 6: 2.43

###

valueType: logP
One number for each entry.

Challenge: Which logP is listed for COc1cc(Cc2cnc(N)nc2N)c(I)c(OC)c1OC ?
Response given: 1.79

###

valueType: logP

Challenge: Which logP is listed for Oc1c(Cl)cc(Cl)c(Cl)c1O ?
Response given: 3.6

###

Kindly supply the reported logP values for the records listed here.
Numbers only.

Here are 2 compounds together with their reported answers.
[
  {
    "smilesInput": "Cc1cccc2ccccc12",
    "logP": 3.87
  },
  {
    "smilesInput": "CCc1ccc2ccccc2c1",
    "logP": 4.38
  }
]

Okay, next one:
Challenge: Which logP is listed for Cc1cc2ccccc2cc1C ?
Response given: 4.4

###

assayMethodText: method code SF-AS, from DOI: 10.1016/0045-6535(84)90003-1
valueType: logP
One number for each entry.

Challenge: Which logP is listed for Oc1cc(Cl)cc(Cl)c1Cl ?
Response given: 3.84

###

Kindly supply the reported logD values for the records listed here.
assayMethodText: method code SF-AS, from DOI: 10.1016/j.bmc.2008.07.057, PMID: 18706818
conditionInfo: pH 7.4
Give bare numbers.

[
  {
    "compound": "CCC1(C(N)=O)CCC=[N+]1[O-] (configuration not stated)",
    "logD": -1.25
  }
]

Okay, next one:
Challenge: Which logD is listed for CC1(C(N)=O)CCC=[N+]1[O-] (configuration not stated) ?
Response given: -1.8

###

Kindly supply the reported logP values for the records listed here.

[
  {
    "smilesInput": "NS(=O)(=O)c1ccc([N+](=O)[O-])cc1",
    "logP": 0.58
  }
]

Items follow; give logP for each.
1. CN(C)c1cccc2c(S(N)(=O)=O)cccc12
2. NS(=O)(=O)c1cc(C(=O)O)cc(N2CCCC2)c1Oc1ccccc1
3. NS(=O)(=O)c1cc(Cl)ccc1Cl

Response given:
1: 1.83; 2: 3.27; 3: 1.65

Items follow; give logP for each.
1. NS(=O)(=O)c1ccccc1[N+](=O)[O-]
2. CC(C)CN[C@H]1CCS(=O)(=O)c2sc(S(N)(=O)=O)cc21
3. NS(=O)(=O)c1ccc([N+](=O)[O-])cc1[N+](=O)[O-]

Response given:
1. 0.4
2. -0.03
3. 0.3

###

assayMethodText: method code SF, from DOI: 10.1016/0378-5173(85)90102-4
conditionInfo: pH 8.0
Kindly supply the reported logD values for the records listed here.
Give bare numbers.

[
  {
    "molecule": "NC(C(=O)OCn1ncc2c(=O)[nH]cnc21)c1ccccc1 (stereo not given)",
    "logD": -0.15
  },
  {
    "molecule": "CN(C)CC(=O)OCn1ncc2c(=O)[nH]cnc21",
    "logD": -0.49
  },
  {
    "molecule": "CC(C)C[C@H](N)C(=O)OCn1ncc2c(=O)[nH]cnc21",
    "logD": 0.19
  },
  {
    "molecule": "CCN(CC)[C@@H](C)C(=O)OCn1ncc2c(=O)[nH]cnc21 (racemic)",
    "logD": 0.72
  }
]

Okay, next one:
Challenge: Which logD is listed for CCCN(CCC)CC(=O)OCn1ncc2c(=O)[nH]cnc21 ?
Response given: 1.27
